The measured values listed here are drawn from patent US20240190880A1.

Study system: ER (Homo sapiens)
Construct: host or cells: T47D and MCF7 human breast cancer cells
Procedure details: ER degradation activity, in-cell western blot analysis in T47D cells
Assay type: cell-based
Condition: 16 hours, Table A does not say which cell line (T47D or MCF7), read-out: Potency (DC50)
Task for the reader: assign each of the following compounds its reported DC50.

Compound | Study system | Endpoint result
O=C1CCC(N2C(=O)c3cc4c(cc3C2=O)CN(C(=O)[C@H]2CC[C@H](N3CC(Oc5ccc([C@H]6c7ccc(O)cc7CC[C@H]6c6ccccc6)cc5)C3)CC2)C4)C(=O)N1 (stereo partly drawn) | ER (Homo sapiens) | 10 to 100 nM

Please go through the list and note DC50 for each compound.
1. C[C@@H]1Cc2c([nH]c3ccccc23)[C@@H](c2ccc(N3CCC4(CCN(CC(=O)N5Cc6cc7c(cc6C5)C(=O)N(C5CCC(=O)NC5=O)C7=O)CC4)CC3)cn2)N1CC(F)F (stereo partly drawn)
2. O=C1CCC(N2C(=O)c3cc4c(cc3C2=O)CN(C(=O)[C@H]2CC[C@H](N3CC(Nc5ccc([C@H]6c7ccc(O)cc7CC[C@H]6c6ccccc6)cc5)C3)CC2)C4)C(=O)N1 (stereo partly drawn) [E 391]

1. > 100 nM
2. > 100 nM
